The following molecules are shown together with reported pIC50 values.
# Test system: L929
# ASSAY COMMENT: Cytotoxicity against mouse L929 cells
# Type: cell-based
pIC50: −log10 of the molar value.
REPORTED ENDPOINT: pIC50

>>> assay_value("O=C1O[C@H](C#CCCl)Cc2ccccc21")
4.85
>>> assay_value("O=c1oc(C#CCCl)cc2ccccc12")
5.43
